Reference source: ChEMBL document CHEMBL3988442

Molecular target: Arginase-2, mitochondrial (Homo sapiens)
Sequence (whole entry): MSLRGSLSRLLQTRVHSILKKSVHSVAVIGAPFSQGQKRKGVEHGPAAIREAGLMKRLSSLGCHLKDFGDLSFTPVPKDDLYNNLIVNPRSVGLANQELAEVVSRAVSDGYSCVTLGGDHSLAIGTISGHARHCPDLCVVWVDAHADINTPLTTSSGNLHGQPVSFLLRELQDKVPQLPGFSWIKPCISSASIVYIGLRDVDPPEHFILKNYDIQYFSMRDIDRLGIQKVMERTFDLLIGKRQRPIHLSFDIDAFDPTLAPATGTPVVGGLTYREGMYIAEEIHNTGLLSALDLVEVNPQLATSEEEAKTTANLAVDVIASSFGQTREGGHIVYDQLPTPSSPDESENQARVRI
Assay: in vitro enzyme assay to detect the production of urea directly proportional to the activity of Arginase II
Format: functional
Design: scale not given: in the data most compounds retested in dose-response had high values
Conditions: 33.3 µM
PROPERTY_MEASURED: Percent Effect (%)
One number for each entry, in %.

Look over these answered cases.
Cc1nccn1C1CCCN(C(=O)c2ccc(N(C)C)nc2)C1 (centres undefined) ... -1.08
CCn1c(C2CCCN(Cc3nccn3CCOC)C2)nn(C)c1=O (centres undefined) ... 32.5
Cc1cc(C2CCCN(C(=O)c3c(C)noc3C)C2)n[nH]1 (centres undefined) ... -20.1
CC(C)Oc1ncnc2c1CCN(C(=O)c1cccn1C)CC2 ... -3.03
CCN1CCN(C(=O)c2ccn(C)c(=O)c2)CC1 ... -1.07

State the recorded Percent Effect for every item in the following list.
1. CN(Cc1ccc(F)cc1)C(=O)NCc1nnc2n1CCCCC2
2. CN1CCc2nc(C3CCN(C(=O)CCC4CCCC4)CC3)ncc2C1

-6.08
-2.1

List Percent Effect for every entry below, keeping the order given.
1. CN(C)C(=O)CNC(=O)Nc1cccc(Cl)c1SC(F)F
2. CC(C)c1nc2c(n1C)CCN(Cc1nc(-c3ccsc3)no1)C2
3. COc1ccccc1NC(=O)NCC(O)(c1ccccc1)C1CC1 (centres undefined)
4. COc1cc(C)nc(N2CCN(C(=O)CCc3nccs3)CC2)n1
5. O=C([C@@H]1CC[C@@H]2[C@@H](CCN2Cc2cccc(F)c2)O1)N1CCCCO1
6. O=C(c1ccsc1)N1C[C@@H](CN2CCCC2)[C@@H](CO)C1
7. O=C(O)[C@]12CCCN(Cc3ccccc3)C[C@H]1CN(c1ncccn1)C2
8. Cc1ccc(CN(Cc2ccccn2)C2CC(C)(C)NC(C)(C)C2)s1

[1.77, -1.29, 7.27, -3.33, -52.5, -5.21, -39.2, -0.232]

Value sought for every listed molecule: Percent Effect.
1. O=C(c1ccsc1)N1CCc2c(CNc3ncccn3)n[nH]c2C1
2. Cc1ccc(C(=O)NCCCN2CCOCC2)c(Cl)c1
3. Cc1ncc(CNC2CCCN(Cc3noc(C4CC4)n3)C2)s1 (centres undefined)

1: -44.6; 2: -2.76; 3: 2.3

I would be grateful if you could provide Percent Effect for each of the following entries.
1. Cc1cc(C(=O)N2CCC3(CCCN(CC4CC4)C3=O)C2)c(C)n1C (centres undefined)
2. CC(COc1ccc(F)cc1F)NC(=O)NCCN1CCOCC1 (centres undefined)
3. CCOc1cc(/C=C/c2ncc(C(=O)O)s2)ccc1O
4. Cc1ccoc1C(=O)N1CCO[C@H]2[C@H](OCC3CCOCC3)CC[C@@H]21
5. CC(C)Sc1ncccc1C(=O)NCc1ccc(CS(C)(=O)=O)cc1
6. CC(NC(=O)NCCCn1ccnc1)c1ccc2c(c1)CCC(=O)N2 (centres undefined)

1: -4.39; 2: -5.92; 3: 4.95; 4: -48.9; 5: 4.09; 6: -2.66
